Reference source for all entries: ChEMBL document CHEMBL5058564

System: Fibroblast
ASSAY_NAME: Incucyte cell viability with human fibroblast; note: unitless GR value; below 1 slowed growth and below 0 cell loss
Format: toxicity, cell-based
TEST_CONTEXT: 0 h, 10 µM, compound concentration 10 uM, replicate number 1, timepoint 0 hours
Could you mark each record fulfilled if its Growth Rate falls strictly under 0.5, and not fulfilled if it equals or exceeds it?

Use these answered entries as a reference point.
CCCn1c(=O)c2[nH]c(C3CCCC3)nc2n(CCC)c1=O ... fulfilled
CC(C)N(CCCCOCC(=O)NS(C)(=O)=O)c1cnc(-c2ccccc2)c(-c2ccccc2)n1 [SELEXIPAG] ... not fulfilled
Br.Cc1cccc(C2CN(C)CCc3c2cc(O)c(O)c3Cl)c1 (centres undefined) ... fulfilled

Next, consider the following compound.
**Query** Bench note: check whether CC1=C(C)C(=O)C(C(CCCCCC(=O)O)c2ccccc2)=C(C)C1=O (centres undefined) [SERATRODAST] shows Growth Rate below 0.5
**Result** not fulfilled

---

Tested on: U2OS
ASSAY_NAME: Incucyte cell viability with U2OS; note: unitless GR value; below 1 slowed growth and below 0 cell loss
Type: toxicity, cell-based
TEST_CONTEXT: human, 18 h, 10 µM, compound concentration 10 uM, replicate number 1, timepoint 18 hours
ENDPOINT_LABEL: Growth Rate
// return just the number, without any unit appended

Illustrative cases are given below, each with its answer.
C[C@H](N)Cn1ccc2cc(F)c(Cl)cc21.O=C(O)/C=C/C(=O)O ... 0.92
COc1ccc2[nH]c(I)c(CCNC(C)=O)c2c1 [IODOMELATONIN] ... 0.84
CC[C@@H](C)Nc1nc(C)nc2c(-c3ccc(OC)nc3C)c(C)nn12 [PEXACERFONT] ... 0.67
COc1ccc(S(=O)(=O)N2C(=O)[C@@](c3ccccc3OC)(N3C[C@H](O)C[C@H]3C(=O)N(C)C)c3cc(Cl)ccc32)c(OC)c1 ... 0.82
COC(=O)Nc1nc2ccc(C(=O)c3cccs3)cc2[nH]1 [NOCODAZOLE] ... 0.03

**Query** Which measured Growth Rate value corresponds to Cl.NCCc1ccc(O)c(O)c1 [DOPAMINE HYDROCHLORIDE] ?
**Result** 0.8

---

System: Fibroblast
ASSAY_NAME: Incucyte cell viability with human fibroblast; note: unitless GR value; below 1 slowed growth and below 0 cell loss
Type: toxicity, cell-based
TEST_CONTEXT: 18 h, 10 µM, compound concentration 10 uM, replicate number 1, timepoint 18 hours
Outcome: class 1 for Growth Rate of at least 0.4; class 0 for anything lower.

**Query** hey, is Growth Rate for this one >= 0.4? N#Cc1c(Oc2cccc(OS(=O)(=O)CCCC(F)(F)F)c2)cccc1C(F)(F)F
**Result** class 0

**Query** hey, is Growth Rate for this one >= 0.4? CC(C)COc1ccc(CNC(=O)N(Cc2ccc(F)cc2)C2CCN(C)CC2)cc1
**Result** class 0

**Query** hey, is Growth Rate for this one >= 0.4? CC[C@H]1OC(=O)[C@H](C)[C@@H](O[C@H]2C[C@@](C)(OC)[C@@H](O)[C@H](C)O2)[C@H](C)[C@@H](O[C@@H]2O[C@H](C)C[C@H](N(C)C)[C@H]2O)[C@@]2(C)CC(C)=C(O2)[C@H](C)[C@@H](O)[C@]1(C)O
**Result** class 1

---

System: Fibroblast
ASSAY_NAME: Incucyte cell viability with human fibroblast; note: unitless GR value; below 1 slowed growth and below 0 cell loss
Format: toxicity, cell-based
TEST_CONTEXT: 24 h, 10 µM, compound concentration 10 uM, replicate number 1, timepoint 24 hours
Measured Growth Rate of individual entries
// return just the number, without any unit appended

Illustrative cases are given below, each with its answer.
Br.Br.c1ncc(CC2CCNCC2)[nH]1 ... 0.77
Cc1ccc(OCC(O)C(C)NC(C)C)c2c1CCC2.Cl (configuration not stated) ... 0.38
C[C@@H](O[C@H]1OCCN(Cc2n[nH]c(=O)[nH]2)[C@H]1c1ccc(F)cc1)c1cc(C(F)(F)F)cc(C(F)(F)F)c1 [APREPITANT] ... 0.28
Cc1cc(O)c(-c2ccc([C@@H](C)CN(C)C)cc2)c2c1[nH]c(=O)c1sccc12 ... -0.36
Cc1nc2ccc(Oc3ccc(F)cc3)cc2c(=O)n1C[C@H]1CCCN(C(C)C)C1.Cl ... -0.38
C[C@@H]1CN(Cc2ccc(F)cc2)CCN1C(=O)COc1ccc(Cl)cc1NC(N)=O [BX 471 FREE BASE] ... -0.14

Below: the item to evaluate.
**Query** Which measured Growth Rate value corresponds to Cc1cc(=O)n(C)c2cc(N3C(=O)CC[C@H](NS(=O)(=O)CC(C)C)[C@H]3c3ccc(Cl)cc3)ccc12 ?
**Result** -0.65

---

Measured Growth Rate of individual entries
Tested on: U2OS
ASSAY_NAME: Incucyte cell viability with U2OS; note: unitless GR value; below 1 slowed growth and below 0 cell loss
Assay type: toxicity, cell-based
TEST_CONTEXT: human, 12 h, 10 µM, compound concentration 10 uM, replicate number 1, timepoint 12 hours
// return just the number, without any unit appended

Illustrative cases are given below, each with its answer.
O=C1NC(=Nc2c(Cl)cccc2Cl)S/C1=C\c1ccc2nccnc2c1 ... 0.33
Cc1sc2c(c1C)C(c1ccc(Cl)cc1)=N[C@H](CC(=O)OC(C)(C)C)c1nnc(C)n1-2 ... 0.95
C[C@@H]1CC(=O)Nc2cccc(-c3ccc4c(c3)c(-c3cnn(C)c3)nn4C)c2N1 ... 0.53
CC(C)Oc1ccc(-c2c[nH]cc2CN(C)CCO)cc1 ... 0.45
Cl.NCCc1c[nH]c2ccc(O)cc12 [SEROTONIN HYDROCHLORIDE] ... 0.38
COc1cc2c(Oc3ccc(NC(=O)C4(C(=O)Nc5ccc(F)cc5)CC4)cc3F)ccnc2cc1OCCCN1CCOCC1 ... -0.1

**Query** Which measured Growth Rate value corresponds to C[C@H](N)COC(=O)[C@@H](CCCCN)NC(=O)Cc1c(-c2ccc3ccccc3c2)[nH]c2c1ccc1ccccc12 ?
**Result** 0.89

**Query** Which measured Growth Rate value corresponds to N#Cc1c(Oc2cccc(OS(=O)(=O)CCCC(F)(F)F)c2)cccc1C(F)(F)F ?
**Result** 0.86

**Query** Which measured Growth Rate value corresponds to COc1cccc2c1c(NS(=O)(=O)c1ccc(Cl)s1)nn2Cc1cccc(CNC(=O)C(C)(C)O)c1 ?
**Result** 0.99

**Query** Which measured Growth Rate value corresponds to Cc1ccccc1N1CCN(CCc2nnc3n2CCCC3)CC1.Cl [DAPIPRAZOLE HYDROCHLORIDE] ?
**Result** 0.78

**Query** Which measured Growth Rate value corresponds to CN(c1ncccc1CNc1ccnc(-c2cc3cc(Cl)ccc3[nH]2)n1)S(C)(=O)=O ?
**Result** 0.52

**Query** Which measured Growth Rate value corresponds to COc1c(C)cc(NC(=O)c2nn(Cc3ccc(F)cc3)c3c2CN(C(=O)c2ccc[nH]2)C[C@]3(C)C(N)=O)cc1C ?
**Result** 0.56

**Query** Which measured Growth Rate value corresponds to CCCN1CCO[C@H]2c3cc(O)ccc3OC[C@@H]21.Cl ?
**Result** 0.93

**Query** Which measured Growth Rate value corresponds to O=c1ccn([C@@H]2O[C@H](COP(=O)([O-])OP(=O)([O-])OP(=O)([O-])O)[C@@H](O)[C@H]2O)c(=O)[nH]1.[Na+].[Na+].[Na+] ?
**Result** 0.6

**Query** Which measured Growth Rate value corresponds to CC(C)NCC(O)COc1cccc2[nH]ccc12 (stereo unspecified) ?
**Result** 0.93

**Query** Which measured Growth Rate value corresponds to O=C1NCc2ccc3c(-c4cccc(Cl)c4)c[nH]c3c21 ?
**Result** 0.07

**Query** Which measured Growth Rate value corresponds to NC(=O)c1ccc(CNC(=O)NC[C@H]2CN(Cc3ccc(Cl)c(Cl)c3)CCO2)cc1 ?
**Result** 0.8

**Query** Which measured Growth Rate value corresponds to N[C@@H](CCP(=O)(O)O)C(=O)O ?
**Result** 0.39

**Query** Which measured Growth Rate value corresponds to Cl.NCCc1ccc(O)c(O)c1 [DOPAMINE HYDROCHLORIDE] ?
**Result** 0.79

**Query** Which measured Growth Rate value corresponds to COC(=O)N1CCN(C(=O)Cc2ccc(Cl)c(Cl)c2)C(CN2CCCC2)C1.O=C(O)/C=C/C(=O)O (stereo unspecified) ?
**Result** 0.75

**Query** Which measured Growth Rate value corresponds to CC(C)n1cnc2c(Nc3cccc(Cl)c3)nc(N[C@H]3CCCC[C@@H]3N)nc21 ?
**Result** -0.12

---

Test system: U2OS
ASSAY_NAME: Incucyte cell viability with U2OS; note: unitless GR value; below 1 slowed growth and below 0 cell loss
Format: toxicity, cell-based
TEST_CONTEXT: human, 18 h, 10 µM, compound concentration 10 uM, replicate number 1, timepoint 18 hours
Where a SMILES comes first, the peptide text is derived from it. [ ]: non-standard residue; d: D form.
Could you mark each record Satisfied if its Growth Rate falls strictly under 0.7, and Not satisfied if it equals or exceeds it?

Use these answered entries as a reference point.
CC(C)NCC(O)COc1cccc2[nH]ccc12 (configuration not stated) ... Not satisfied
CC(C)C[C@@H]1NC(=O)[C@@H](C(C)C)NC(=O)[C@@H]2CCCN2C(=O)[C@@H](CC(=O)O)NC(=O)[C@@H](Cc2c[nH]c3ccccc23)NC1=O [BQ-123] (cyclo(L[dW][dD]P[dV])) ... Satisfied
CC(C)CC(=O)Nc1cncc(-c2ccc3[nH]nc(-c4nc5c(-c6cccc(F)c6)cncc5[nH]4)c3c2)c1 ... Satisfied
CCc1nnc(NS(=O)(=O)c2ccc(NC(=S)NC(=O)/C=C/c3ccc(F)cc3)cc2)s1 ... Not satisfied
OC[C@H]1O[C@@H](n2cnc3c(NC4CCCC4)ncnc32)[C@H](O)[C@@H]1O ... Satisfied
CCCCCCNC(=O)Nc1ccc(S(=O)(=O)Nc2ccc(CCNC[C@H](O)COc3ccc(O)cc3)cc2)cc1 ... Not satisfied

**Query** Bench note: check whether CN(c1ncccc1CNc1ccnc(-c2nc3c(F)c(Cl)ccc3[nH]2)n1)S(C)(=O)=O shows Growth Rate below 0.7
**Result** Satisfied

**Query** Bench note: check whether CC1(COc2ccc3c(c2)ncn3-c2ccc3cccc(N4CCC(N)CC4)c3n2)COC1 shows Growth Rate below 0.7
**Result** Not satisfied

**Query** Bench note: check whether O=C1COc2nccc(-c3ccccc3F)c2CN1Cc1cc(C(F)(F)F)cc(C(F)(F)F)c1 shows Growth Rate below 0.7
**Result** Not satisfied

**Query** Bench note: check whether CC(C)(C)c1ccc(-c2coc3ccc(-c4cn[nH]c4)nc23)cc1 shows Growth Rate below 0.7
**Result** Not satisfied
